# Test system: Toxoplasma gondii RH 2F1 tachyzoites (intracellular in HFF)
# ASSAY_INFO: parasite survival relative to DMSO control; higher = less antiparasitic activity, active = 20 or less
# CONDITIONS_USED: 1 µM; 72 h
RESULT_TYPE: parasite survival (%)
Just the number in %, nothing appended.

compound="O=C(CC1Sc2ncnn2C1=O)Nc1ccc(Br)cc1 (stereo not drawn)" result_type="parasite survival" measurement_unit=% numeric_value=28.1
compound=O=C(Nc1ccc(F)cc1)c1nn(-c2ccccc2)c(=O)cc1Cl result_type="parasite survival" measurement_unit=% numeric_value=42.6

Turning now to a further record.
Exercise: What parasite survival appears in the records for this compound with Toxoplasma gondii RH 2F1 tachyzoites (intracellular in HFF)? O=C(c1cc(O)nc2ccccc12)N1CCN(c2ccccc2)CC1
Key: 77.5
